Hello, the source for this data is patent US20250127933A1, in case you need it.

Test system: Leucine aminopeptidase (LAP)
Test: Enzymatic kinetic study of LAP reaction of activatable fluorescent probes
Type: biochemical, porcine
Settings: 1 μM probe, 10 μg/mL LAP, PBS pH 7.4, 37° C., 80 min
Procedure: All spectroscopic readings were measured with BioTek Synergy™ H1 spectrophotometer, using 96 well microplate. A parent stock solution of probes was dissolved in DMSO to obtain 10 mM. […] The kinetic study for LAP reaction was performed by incubation of 2 μg of LAP ([…]) with 1 μM probe in PBS buffer (10 mM, pH 7.4). The plate was incubated at 37° C. for 80 min with continuous shaking, and the emission spectra were recorded at the corresponding wavelength over time. […]
// returns Not met unless Fluorophore released in LAP reaction (% yield) is strictly below 30%, in which case Met

Examples from the recorded data:
COc1ccc2c(c1)Oc1cc(NC(=O)[C@@H](N)CC(C)C)ccc1C21OC(=O)c2ccccc21 (stereo partly shown) [Probe 2] = Not met
CCN(CC)c1ccc2c(c1)Oc1cc(OCc3ccc(NC(=O)[C@@H](N)CC(C)C)cc3)ccc1C21OC(=O)c2ccccc21 (stereo partly shown) [Probe 5] = Met
CCN(CC)c1ccc2c(c1)Oc1cc(NC(=O)OCc3ccc(NC(=O)[C@@H](N)CC(C)C)cc3)ccc1C21OCc2ccccc21 (stereo partly shown) [Probe 9] = Not met
COc1ccc2c(c1)Oc1cc(OCc3ccc(NC(=O)[C@@H](N)CC(C)C)cc3)ccc1C21OCc2ccccc21 (stereo partly shown) [Probe 12] = Not met

Query: Field: below-cutoff. Rule: recorded Fluorophore released in LAP reaction (% yield) strictly less than 30%. Subject: CCN(CC)c1ccc2c(c1)Oc1cc(NC(=O)[C@@H](N)CC(C)C)ccc1C21OC(=O)c2ccccc21 (stereo partly shown) [Probe 1]
Reply: Not met

Query: Dear reviewer, please state whether COc1ccc2c(c1)Oc1cc(NC(=O)OCc3ccc(NC(=O)[C@@H](N)CC(C)C)cc3)ccc1C21OC(=O)c2ccccc21 (stereo partly shown) [Probe 4] has Fluorophore released in LAP reaction (% yield) strictly beneath 30%.
Reply: Not met

====

System: Leucine aminopeptidase (LAP)
Assay: Enzymatic kinetic study of LAP reaction of activatable fluorescent probes
Assay type: biochemical, porcine
Settings: 1 μM probe, 10 μg/mL LAP, PBS pH 7.4, 37° C., 80 min; calculated from fluorophore calibration curves
Please go through the items and note down their Fluorophore released in LAP reaction (concentration).

Report Fluorophore released in LAP reaction (concentration) for every entry below.
1. COc1ccc2c(c1)Oc1cc(OCc3ccc(NC(=O)[C@@H](N)CC(C)C)cc3)ccc1C21OC(=O)c2ccccc21 (stereo partly drawn)
2. COc1ccc2c(c1)Oc1cc(NC(=O)OCc3ccc(NC(=O)[C@@H](N)CC(C)C)cc3)ccc1C21OC(=O)c2ccccc21 (stereo partly drawn)
3. COc1ccc2c(c1)Oc1cc(OCc3ccc(NC(=O)[C@@H](N)CC(C)C)cc3)ccc1C21OCc2ccccc21 (stereo partly drawn)
4. COc1ccc2c(c1)Oc1cc(NC(=O)[C@@H](N)CC(C)C)ccc1C21OCc2ccccc21 (stereo partly drawn)
5. CCN(CC)c1ccc2c(c1)Oc1cc(OCc3ccc(NC(=O)[C@@H](N)CC(C)C)cc3)ccc1C21OC(=O)c2ccccc21 (stereo partly drawn)
6. COc1ccc2c(c1)Oc1cc(NC(=O)[C@@H](N)CC(C)C)ccc1C21OC(=O)c2ccccc21 (stereo partly drawn)

Reply:
1: ~0.373 µM; 2: ~0.769 µM; 3: ~0.736 µM; 4: ~0.939 µM; 5: ~0.191 µM; 6: ~0.897 µM

====

Test system: Leucine aminopeptidase (LAP)
Assay: Enzymatic kinetic study of LAP reaction of activatable fluorescent probes
Assay type: biochemical, porcine
Settings: LAP reaction, enzymatic study
observed property: LAP response / fluorophore release (in words)

COc1ccc2c(c1)Oc1cc(OCc3ccc(NC(=O)[C@@H](N)CC(C)C)cc3)ccc1C21OC(=O)c2ccccc21 (stereo partly shown) = lower responses
CCN(CC)c1ccc2c(c1)Oc1cc(OCc3ccc(NC(=O)[C@@H](N)CC(C)C)cc3)ccc1C21OCc2ccccc21 (stereo partly shown) = lower responses
CCN(CC)c1ccc2c(c1)Oc1cc(OCc3ccc(NC(=O)[C@@H](N)CC(C)C)cc3)ccc1C21OC(=O)c2ccccc21 (stereo partly shown) = lower responses

====

Please respond with reported Fluorophore released in LAP reaction (% yield) for every item in the list.
Tested on: Leucine aminopeptidase (LAP)
Test: Enzymatic kinetic study of LAP reaction of activatable fluorescent probes
Assay type: biochemical, porcine
Conditions: 1 μM probe, 10 μg/mL LAP, PBS pH 7.4, 37° C., 80 min
Answers are plain numbers, in %.

COc1ccc2c(c1)Oc1cc(NC(=O)OCc3ccc(NC(=O)[C@@H](N)CC(C)C)cc3)ccc1C21OCc2ccccc21 (stereo partly shown) = 67.6
COc1ccc2c(c1)Oc1cc(OCc3ccc(NC(=O)[C@@H](N)CC(C)C)cc3)ccc1C21OC(=O)c2ccccc21 (stereo partly shown) = 37.3
COc1ccc2c(c1)Oc1cc(NC(=O)[C@@H](N)CC(C)C)ccc1C21OCc2ccccc21 (stereo partly shown) = 93.9

Alright, here's another compound for you.
Query: Tell us which Fluorophore released in LAP reaction (% yield) value is on record for CCN(CC)c1ccc2c(c1)Oc1cc(NC(=O)[C@@H](N)CC(C)C)ccc1C21OCc2ccccc21 (stereo partly shown)
Reply: 74.1

====

Target: Leucine aminopeptidase (LAP)
Experiment: Enzymatic kinetic study of LAP reaction of activatable fluorescent probes
Format: biochemical, porcine
Conditions: 1 μM probe, 10 μg/mL LAP, PBS pH 7.4, 37° C., 80 min
observed property: kinetics of LAP reaction (time-dependent fluorescence emission)

CCN(CC)c1ccc2c(c1)Oc1cc(OCc3ccc(NC(=O)[C@@H](N)CC(C)C)cc3)ccc1C21OCc2ccccc21 (some centres unmarked) = notably slower kinetics
CCN(CC)c1ccc2c(c1)Oc1cc(OCc3ccc(NC(=O)[C@@H](N)CC(C)C)cc3)ccc1C21OC(=O)c2ccccc21 (some centres unmarked) = notably slower kinetics
COc1ccc2c(c1)Oc1cc(OCc3ccc(NC(=O)[C@@H](N)CC(C)C)cc3)ccc1C21OC(=O)c2ccccc21 (some centres unmarked) = notably slower kinetics

====

For each of the compounds below, state its Fluorophore released in LAP reaction (concentration).
System: Leucine aminopeptidase (LAP)
Assay: Enzymatic kinetic study of LAP reaction of activatable fluorescent probes
Assay type: biochemical, porcine
Conditions: 1 μM probe, 10 μg/mL LAP, PBS pH 7.4, 37° C., 80 min; calculated from fluorophore calibration curves

Sample records with Fluorophore released in LAP reaction (concentration):
CCN(CC)c1ccc2c(c1)Oc1cc(NC(=O)OCc3ccc(NC(=O)[C@@H](N)CC(C)C)cc3)ccc1C21OCc2ccccc21 (stereo partly drawn) [Probe 9] = ~0.328 µM
CCN(CC)c1ccc2c(c1)Oc1cc(NC(=O)[C@@H](N)CC(C)C)ccc1C21OCc2ccccc21 (stereo partly drawn) [Probe 7] = ~0.741 µM
CCN(CC)c1ccc2c(c1)Oc1cc(NC(=O)[C@@H](N)CC(C)C)ccc1C21OC(=O)c2ccccc21 (stereo partly drawn) [Probe 1] = ~0.667 µM
CCN(CC)c1ccc2c(c1)Oc1cc(OCc3ccc(NC(=O)[C@@H](N)CC(C)C)cc3)ccc1C21OCc2ccccc21 (stereo partly drawn) [Probe 11] = ~0.298 µM
CCN(CC)c1ccc2c(c1)Oc1cc(NC(=O)OCc3ccc(NC(=O)[C@@H](N)CC(C)C)cc3)ccc1C21OC(=O)c2ccccc21 (stereo partly drawn) [Probe 3] = ~0.987 µM

Now look at this one.
Query: Return value of Fluorophore released in LAP reaction (concentration) for input COc1ccc2c(c1)Oc1cc(NC(=O)OCc3ccc(NC(=O)[C@@H](N)CC(C)C)cc3)ccc1C21OCc2ccccc21 (stereo partly drawn) [Probe 10] , no commentary.
Reply: ~0.676 µM
